test: coupled detection enzyme interference, dose response, artefact control for MgcRacGAP inhibitor project, biochemical, coupled enzyme counter-screen (AID 624351); conditions: ADP Hunter coupled enzyme counter-screen, fluorescence, no MgcRacGAP; series mostly up to 80 µM;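 further: signal is the ADP detection kit reading of free GDP without any GAP enzyme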
Among all 2,400 compounds or so, about 1,400 (58%) were called active.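 How the source made its calls: active means inhibition of 30% or more at any tested dose; inconclusive means primary hits over the limit that were never retested; inactive means the rest.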 The set was probably picked from earlier hits. The list shows a part of the results.
Respond only with the outcome that fits, drawn from active, inactive

Some solved cases for reference:
compound	label
C=CCOc1ccccc1CN1CCCN(C)CC1	inactive
COc1cc(/C=N/NC(=O)c2[nH]nc3c2CCc2ccccc2-3)ccc1O	active
COc1ccc(OC(=O)COc2ccc(C)cc2)cc1	inactive
CN1C(=O)/C(=C/C=C2/CCCN2C)N(C)C1=S	active
COc1ccccc1OCC#CCn1ccnc1	inactive

Please share the test call associated with O=C(CN1CCN(c2ncccn2)CC1)N1CCCC1 . inactive

Next up: NC(N)=N/N=C/c1ccc(Cl)cc1Cl inactive
